test_name: protein stability index of a GFP-peptide fusion (GPS, HEK-293T) (PSI 1-6); higher = more stable;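 further: 24-mer peptide tiles fused after GFP, lentivirally expressed, FACS-sorted into six equal bins by GFP/DsRed ratio, decoded by Illumina sequencing, PSI is the read-weighted mean bin number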
recorded_conditions: treatment: MLN4924 1 uM, 8 h; c terminus: a fixed tail appended
observable: protein stability index

Query: Read the entry LLGEETPMAADEGSAEKQAGEAHM [EHMT1] and write its reported protein stability index.
Response: 5.57

Query: Read the entry LPHQSHRQRSSLAKINIVYQELNY [SCNN1D] and write its reported protein stability index.
Response: 2.54

Query: Read the entry GPAHGPAQEEPWEKKESLGAAQEA [ZNF232] and write its reported protein stability index.
Response: 5.49

Query: Read the entry DPKKLLTQHFVQENYLEYRQVPGS [MAGEA3] and write its reported protein stability index.
Response: 3.76

Query: Read the entry PQLKKESELPFVPNYLANPAFPFI [ANKRD40] and write its reported protein stability index.
Response: 2.87

Query: Read the entry NGGMATTSAEIELPDVEPAAFLAL [BTBD1] and write its reported protein stability index.
Response: 4.02

Query: Read the entry KAPSKLGLIISGPILQEGMDEEKL [DLC1] and write its reported protein stability index.
Response: 4.54

Ref: the supplement of paper PMC10567573
